Attribution: paper PMC2790015

- assayed_system: T1, K4 coiled-coil peptide (modified: N-terminal Met, Val to Trp, C-terminal Ala), unconjugated
- T1 peptide: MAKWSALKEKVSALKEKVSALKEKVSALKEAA
- test_description: ITC
test_readout: Kd

Which Kd is listed for MAEWSALEKEVSALEKEVSALEKEVSALEKAA [E4 coiled-coil peptide (modified: N-terminal Met, Val to Trp, C-terminal Ala), unconjugated] ?
~1000 nM
